The origin of these recorded values is patent US20250221966A1.

biological target: human RXFP1 (Homo sapiens); construct: expressed in transfected cells; experiment: RXFP1 cAMP assay (hRXFP1 HEK293 cAMP assay, HTRF); assay type: cell-based; settings: HEK293 cells stably expressing human RXFP1, 30 min at room temperature, read-out: cAMP hRXFP1 HEK293 Assay EC50
pEC50: −log10 of the molar value.
Where pEC50 equals or exceeds 7, the correct label is Y; where it does not, the label is N.

COMPOUND	GROUP
COc1ccc(C2=NOC(C3(O)CC3)C2)cc1C(=O)N[C@H]1[C@@H](C(=O)Nc2ccc(F)c(C(F)(F)F)c2)[C@H]2CC[C@@H]1/C2=C\C1CC1 (single isomer, unassigned)	Y
COc1ccc(C2=NOC(CC(=O)O)C2)cc1C(=O)N[C@@H]1C2CCC(/C2=C/C2CC2)[C@@H]1C(=O)Nc1ccc(F)c(C(F)(F)F)c1 (some centres unmarked) [compound 392]	Y
COc1ccc(-c2cc(C3=NOC(C(=O)O)C3)ccc2F)cc1C(=O)N[C@H]1[C@@H](C(=O)Nc2ccc(F)c(C(F)(F)F)c2)[C@H]2CC[C@@H]1/C2=C\C1CC1 (some centres unmarked) [compound 948]	Y
COc1ccc(-c2cc(CC(=O)O)ccc2F)cc1C(=O)N[C@@H]1C2CCC(/C2=C/c2ccccc2)[C@@H]1C(=O)Nc1ccc(F)c(C(F)(F)F)c1 (some centres unmarked)	Y
COc1c(F)cc(C2=NOC3CC(O)(C(F)(F)F)CC23)cc1C(=O)N[C@H]1[C@@H](C(=O)Nc2ccc(F)c(C(F)(F)F)c2)[C@H]2CC[C@@H]1/C2=C\C1CC(F)(F)C1 (some centres unmarked)	Y

Say whether COc1ccc(-c2ccc(C(=O)N(C)C)cc2F)cc1C(=O)N[C@@H]1C2CCC(/C2=C/c2ccccc2)[C@@H]1C(=O)Nc1ccc(F)c(C(F)(F)F)c1 (some centres unmarked) shows pEC50 of 7 or more.
Y

Say whether COc1ccc(C2=NOC3CNCC23)cc1C(=O)N[C@H]1[C@@H](C(=O)Nc2ccc(F)c(C(F)(F)F)c2)[C@H]2CC[C@@H]1/C2=C\C1CC1 (some centres unmarked) shows pEC50 of 7 or more.
Y

Say whether COc1ccc(-c2cc(C(F)(F)F)ccc2F)cc1C(=O)N[C@@H]1C2CCC(/C2=C/C2CC(F)(F)C2)[C@@H]1C(=O)Nc1ccc(F)c(C(F)(F)F)c1 (some centres unmarked) shows pEC50 of 7 or more.
N

Say whether COc1ccc(C2=NOC3(CO)CCC23CO)cc1C(=O)N[C@H]1[C@@H](C(=O)Nc2ccc(F)c(C(F)(F)F)c2)[C@H]2CC[C@@H]1/C2=C\C1CC1 (single isomer, unassigned) [Example 461] shows pEC50 of 7 or more.
Y

Say whether COc1ccc(C2CC3CN(CCCO)C(=O)C32)cc1C(=O)N[C@H]1[C@@H](C(=O)Nc2ccc(F)c(C(F)(F)F)c2)[C@H]2CC[C@@H]1/C2=C\C1CC1 (single isomer, unassigned) shows pEC50 of 7 or more.
Y

---

target: human RXFP1 (Homo sapiens, UniProt Q9HBX9); construct: expressed in transfected cells; test: RXFP1 cAMP assay (hRXFP1 HEK293 cAMP assay, HTRF); assay type: cell-based; details: HEK293 cells stably expressing human RXFP1, 30 min at room temperature, read-out: cAMP hRXFP1 HEK293 Assay EC50
Sequence (Q9HBX9 whole entry): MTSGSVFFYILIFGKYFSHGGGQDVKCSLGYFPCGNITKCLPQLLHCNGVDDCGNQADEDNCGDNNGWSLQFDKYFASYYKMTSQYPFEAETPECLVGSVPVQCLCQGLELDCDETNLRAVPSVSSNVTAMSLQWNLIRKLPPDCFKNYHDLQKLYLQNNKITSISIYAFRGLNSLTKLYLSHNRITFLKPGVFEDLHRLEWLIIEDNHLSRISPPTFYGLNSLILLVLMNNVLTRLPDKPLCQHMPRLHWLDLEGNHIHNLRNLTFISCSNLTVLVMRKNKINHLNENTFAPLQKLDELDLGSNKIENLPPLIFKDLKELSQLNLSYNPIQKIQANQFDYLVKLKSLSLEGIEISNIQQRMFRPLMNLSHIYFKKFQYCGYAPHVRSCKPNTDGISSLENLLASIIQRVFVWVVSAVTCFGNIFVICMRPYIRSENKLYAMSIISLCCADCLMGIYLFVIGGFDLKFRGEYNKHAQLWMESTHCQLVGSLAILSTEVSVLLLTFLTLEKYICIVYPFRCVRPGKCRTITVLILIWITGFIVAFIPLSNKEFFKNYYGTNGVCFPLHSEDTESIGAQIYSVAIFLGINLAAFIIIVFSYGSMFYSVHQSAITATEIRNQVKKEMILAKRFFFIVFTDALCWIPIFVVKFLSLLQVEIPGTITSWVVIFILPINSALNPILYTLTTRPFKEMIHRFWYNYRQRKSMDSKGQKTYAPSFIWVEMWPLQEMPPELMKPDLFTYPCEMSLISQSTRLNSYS
READOUT: log10 EC50 (log10 of the value in nM)
Please keep in mind that the values are log10 of EC50 expressed in nM.

Working through the 4 molecules below one at a time, give log10 EC50 for each.
1. COc1ccc(-c2cc(C(=O)O)ccc2F)cc1C(=O)N[C@H]1[C@@H](C(=O)Nc2ccc(C)c(C(F)(F)F)c2)[C@H]2CC[C@@H]1/C2=C\C1CC1
2. COc1ccc(-c2cc([C@H](OC(=O)NC3CC3)C(F)(F)F)ccc2F)cc1C(=O)N[C@H]1[C@@H](C(=O)Nc2ccc(F)c(C(F)(F)F)c2)[C@H]2CC[C@@H]1/C2=C\C1CC(F)(F)C1
3. COc1ccc(C2=NO[C@H]3[C@@H]2[C@@H](O)C[C@H]3O)cc1C(=O)N[C@H]1[C@@H](C(=O)Nc2ccc(F)c(C(F)(F)F)c2)[C@H]2CC[C@@H]1/C2=C\C1CC1 (single isomer, unassigned)
4. COc1ccc(C2=NOC(C)(C(=O)O)C2)cc1C(=O)N[C@@H]1C2CCC(/C2=C/C2CC2)[C@@H]1C(=O)Nc1ccc(F)c(C(F)(F)F)c1 (stereo partly shown) [compound 421]

1: 0.70; 2: 0.40; 3: 1.47; 4: 2.92
